Tested Target: human CDK4 and genetically truncated (1-264) cyclin D3 (Homo sapiens)
Assay Notes: Inhibition of CDK4/Cyclin D Retinoblastoma Kinase Activity
Conditions: apparent Ki, CDK4/truncated cyclin D3, Rb fragment substrate, 25 μM ATP
Protocol: Cyclin-dependent kinase activity was measured by quantifying the enzyme-catalyzed, time-dependent incorporation of radioactive phosphate from [^32P]ATP or [^33P]ATP into a protein substrate. […] The phosphorylated substrate was then captured on a nitrocellulose or phosphocellulose membrane using a 96-well filtration manifold, and unincorporated radioactivity was removed by repeated washing with 0.85% phosphoric acid. Radioactivity was quantified by exposing the dried membranes to a phosphorimager. […]
Where a name gives a salt, the structure may show the parent alone.
Endpoint Name: pKi
Scale note: pKi = -log10(concentration in M).

Answered cases to consult:
>>> numeric_readout("Nc1nc(NC2CCN(C(=O)c3ccc(F)c(Cl)c3)CC2)sc1C(=O)c1c(F)cccc1F")
8.02
>>> numeric_readout("Nc1nc(NC2CCN(S(=O)(=O)CCN3CC=CCC3)CC2)sc1C(=O)c1c(F)cccc1F [Example K32, Trifluoroacetic Acid Salt]")
8.68
>>> numeric_readout("CC(CN(C)C)Oc1ccc(S(=O)(=O)N2CCC(Nc3nc(N)c(C(=O)c4c(F)cccc4F)s3)CC2)cn1 (racemic) [Example H13, Dihydrochloride]")
9.19

Input Nc1nc(NC2CCN(S(=O)(=O)c3ccc(S)nc3)CC2)sc1C(=O)c1c(F)cccc1F [Example L4, Hydrochloride] , output reported pKi.
8.74

Input Nc1nc(NC2CCN(S(=O)(=O)c3ccc(N4CCC[C@@H]4CO)nc3)CC2)sc1C(=O)c1c(F)cccc1F [Example G13, Trifluoroacetic Acid Salt] , output reported pKi.
9.19

Input Cn1ccnc1SCCCS(=O)(=O)N1CCC(Nc2nc(N)c(C(=O)c3c(F)cccc3F)s2)CC1 , output reported pKi.
8.14

Input CN(C)c1ccc(S(=O)(=O)N2CCC(Nc3nc(N)c(C(=O)c4c(F)cccc4F)s3)CC2)cn1 , output reported pKi.
8.77

====

In this section, each of the compounds is paired with its reported CDK4 % Inhibition at 0.03 μM.
Tested Target: human CDK4 and genetically truncated (1-264) cyclin D3 (Homo sapiens, UniProt P11802)
Sequence (P11802 whole entry, the tested form may be a part): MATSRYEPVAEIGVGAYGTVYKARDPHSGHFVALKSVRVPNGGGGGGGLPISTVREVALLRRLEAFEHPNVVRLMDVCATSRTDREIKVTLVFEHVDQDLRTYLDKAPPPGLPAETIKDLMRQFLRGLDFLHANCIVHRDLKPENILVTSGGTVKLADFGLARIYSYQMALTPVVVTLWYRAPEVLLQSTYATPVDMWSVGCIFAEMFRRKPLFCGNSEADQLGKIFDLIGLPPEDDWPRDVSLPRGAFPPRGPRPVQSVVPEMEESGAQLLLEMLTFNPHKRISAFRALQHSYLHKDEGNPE
Sequence (P30281 1-264 partner): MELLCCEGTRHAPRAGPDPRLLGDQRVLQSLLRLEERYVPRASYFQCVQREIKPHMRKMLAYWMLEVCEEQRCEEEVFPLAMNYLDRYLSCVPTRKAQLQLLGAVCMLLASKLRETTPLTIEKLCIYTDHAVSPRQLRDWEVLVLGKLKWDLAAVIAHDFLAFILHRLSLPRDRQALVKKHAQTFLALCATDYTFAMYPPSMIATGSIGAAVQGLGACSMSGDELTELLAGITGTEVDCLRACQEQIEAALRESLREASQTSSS
Assay Notes: Inhibition of CDK4/Cyclin D Retinoblastoma Kinase Activity
Assay type: biochemical
Conditions: 0.03 μM compound; Table 2; 0.03 µM
Experimental: Cyclin-dependent kinase activity was measured by quantifying the enzyme-catalyzed, time-dependent incorporation of radioactive phosphate from [^32P]ATP or [^33P]ATP into a protein substrate. […] The phosphorylated substrate was then captured on a nitrocellulose or phosphocellulose membrane using a 96-well filtration manifold, and unincorporated radioactivity was removed by repeated washing with 0.85% phosphoric acid. Radioactivity was quantified by exposing the dried membranes to a phosphorimager. […]
Use % as the unit, but write only the number.

>>> numeric_readout("COc1ccc(NC(=O)N2CCC(Nc3nc(N)c(C(=O)c4c(F)cccc4F)s3)CC2)cc1 [Example O21]")
13
>>> numeric_readout("CC(NC(=O)N1CCC(Nc2nc(N)c(C(=O)c3c(F)cccc3F)s2)CC1)c1ccccc1 (stereo not shown) [Example O66]")
"−1"
>>> numeric_readout("COc1ccc(NC(=O)N2CCC(Nc3nc(N)c(C(=O)c4c(F)cccc4F)s3)CC2)cc1 [Example O84]")
14

Proceed to the following item.
Write down the reported CDK4 % Inhibition at 0.03 μM (system: human CDK4 and genetically truncated (1-264) cyclin D3 (Homo sapiens, UniProt P11802)) of CC(NC(=O)N1CCC(Nc2nc(N)c(C(=O)c3c(F)cccc3F)s2)CC1)c1ccccc1 (stereo not shown) [Example O28]
12

====

Tested Target: human CDK4 and genetically truncated (1-264) cyclin D3 (Homo sapiens, UniProt P11802)
Assay Notes: Inhibition of CDK4/Cyclin D Retinoblastoma Kinase Activity
Assay type: biochemical
Conditions: 0.03 μM compound; Table 3
Hi! Just check whether CDK4 % Inhibition at 0.03 μM is below 60%. Below gives MET, equal or above gives NOT MET.

# TODO verify CDK4 % Inhibition at 0.03 μM < 60% strictly for this compound: Cc1ccc(S(=O)(=O)N2CCC(Nc3nc(N)c(C(=O)c4c(F)cccc4F)s3)CC2)cc1 [Example P23]
NOT MET

# TODO verify CDK4 % Inhibition at 0.03 μM < 60% strictly for this compound: Nc1nc(NC2CCN(S(=O)(=O)c3ccc(Sc4ccncc4)cc3)CC2)sc1C(=O)c1c(F)cccc1F [Example P87]
MET

====

Tested Target: CDK2/Cyclin A (Homo sapiens, UniProt P24941)
Assay Notes: Inhibition of CDK2/Cyclin A Retinoblastoma Kinase Activity
Type: biochemical
Conditions: 0.03 μM compound; Table 2; 0.03 µM
In this section, each of the molecules is paired with its reported CDK2 % Inhibition At 0.03 μM.

>>> result("CC(NC(=O)N1CCC(Nc2nc(N)c(C(=O)c3c(F)cccc3F)s2)CC1)c1ccccc1 (stereo not shown) [Example O66]")
"32%"
>>> result("CC(NC(=O)N1CCC(Nc2nc(N)c(C(=O)c3c(F)cccc3F)s2)CC1)c1ccccc1 (stereo not shown) [Example O28]")
"27%"
>>> result("COc1ccc(NC(=O)N2CCC(Nc3nc(N)c(C(=O)c4c(F)cccc4F)s3)CC2)cc1 [Example O21]")
"37%"

Proceed to the following item.
Write down the reported CDK2 % Inhibition At 0.03 μM (system: CDK2/Cyclin A (Homo sapiens, UniProt P24941)) of COc1ccc(NC(=O)N2CCC(Nc3nc(N)c(C(=O)c4c(F)cccc4F)s3)CC2)cc1 [Example O84]
23%

====

Test system: HCT-116 cell line
Assay Notes: Inhibition of cell growth, tetrazolium salt (MTT) assay
Assay type: cell-based
Conditions: 0.25 μM compound; HCT-116; Table 2
Output: class label from HCT-116 % Inhibition at 0.25 μM. Mapping: one = under 20%, two = from 20% up to 40%, three = 40% and over

These recorded examples may help you get a feel for the data.
>>> qualitative_label("Nc1nc(NC2CCN(C(=O)NCCc3cccs3)CC2)sc1C(=O)c1c(F)cccc1F [Example O65]")
"three"
>>> qualitative_label("COC(=O)[C@H](CC(C)C)NC(=O)N1CCC(Nc2nc(N)c(C(=O)c3c(F)cccc3F)s2)CC1 [Example O77]")
"three"
>>> qualitative_label("CCOC(=O)c1ccc(NC(=O)N2CCC(Nc3nc(N)c(C(=O)c4c(F)cccc4F)s3)CC2)cc1 [Example O22]")
"two"
>>> qualitative_label("COc1ccc(C)cc1NC(=O)N1CCC(Nc2nc(N)c(C(=O)c3c(F)cccc3F)s2)CC1 [Example O50]")
"three"
>>> qualitative_label("Nc1nc(NC2CCN(C(=O)Nc3ccc4ccccc4c3)CC2)sc1C(=O)c1c(F)cccc1F [Example O54]")
"three"
>>> qualitative_label("Cc1ccccc1NC(=O)N1CCC(Nc2nc(N)c(C(=O)c3c(F)cccc3F)s2)CC1 [Example O11]")
"one"

Place this molecule in its band: Nc1nc(NC2CCN(C(=O)Nc3ccc(F)cc3)CC2)sc1C(=O)c1c(F)cccc1F [Example O19]
one

Place this molecule in its band: CC(C)(C)NC(=O)N1CCC(Nc2nc(N)c(C(=O)c3c(F)cccc3F)s2)CC1 [Example O27]
two

Place this molecule in its band: COC(=O)[C@H](COC(C)(C)C)NC(=O)N1CCC(Nc2nc(N)c(C(=O)c3c(F)cccc3F)s2)CC1 [Example O79]
three

Place this molecule in its band: Nc1nc(NC2CCN(C(=O)Nc3ccc(Oc4ccccc4)cc3)CC2)sc1C(=O)c1c(F)cccc1F [Example O52]
two

Place this molecule in its band: N#Cc1cccc(NC(=O)N2CCC(Nc3nc(N)c(C(=O)c4c(F)cccc4F)s3)CC2)c1 [Example O43]
one

Place this molecule in its band: Cc1ccc(C)c(NC(=O)N2CCC(Nc3nc(N)c(C(=O)c4c(F)cccc4F)s3)CC2)c1 [Example O42]
two

Place this molecule in its band: Nc1nc(NC2CCN(C(=O)Nc3cccc(Br)c3)CC2)sc1C(=O)c1c(F)cccc1F [Example O12]
two

Place this molecule in its band: Nc1nc(NC2CCN(C(=O)Nc3ccc(C(F)(F)F)cc3)CC2)sc1C(=O)c1c(F)cccc1F [Example O23]
two

Place this molecule in its band: CCOC(=O)C(NC(=O)N1CCC(Nc2nc(N)c(C(=O)c3c(F)cccc3F)s2)CC1)C(C)C (stereo not shown) [Example O74]
two

Place this molecule in its band: Nc1nc(NC2CCN(C(=O)NCCc3ccc4c(c3)OCO4)CC2)sc1C(=O)c1c(F)cccc1F [Example O87]
three

====

In this section, each of the compounds is paired with its reported pIC50.
System: HCT-116 cell line
Assay Notes: Inhibition of cell growth, tetrazolium salt (MTT) assay
Format: cell-based
Conditions: Homo sapiens, HCT-116, 120 h, first HCT-116 column (c4); MTT, three to five days; read-out: HCT-116 IC50
Experimental: Inhibition of Cell Growth: Assessment of Cytotoxicity: Inhibition of cell growth was measured using the tetrazolium salt assay, which is based on the ability of viable cells to reduce 3-(4,5-dimethylthiazol-2-yl)-2,5-[2H]-diphenyltetrazolium bromide (MTT) to formazan (Mossman, Journal of Immunological Methods, vol. 65 (1983), pp. 55-58). The water-insoluble purple formazan product was then detected spectrophotometrically. […]
Scale note: pIC50 = -log10(concentration in M).

Write down the reported pIC50 (system: HCT-116 cell line) of COc1ccc(S(=O)(=O)N2CCC(Nc3nc(N)c(C(=O)c4c(F)cccc4F)s3)CC2)cn1
7.10

Write down the reported pIC50 (system: HCT-116 cell line) of Nc1nc(NC2CCN(S(=O)(=O)CCCNCc3cccc(F)c3)CC2)sc1C(=O)c1c(F)cccc1F
7.10
